molecular target: IL-17RA/IL17RC dimerization induced by IL-17A (Homo sapiens, UniProt Q16552); test: IL-17RA/IL17RC dimerization assay in response to IL-17A (PathHunter Cytokine Receptor Assay); type: cell-based; settings: IL-17A at EC80; read-out: IC50 in IL-17RA/IL7RC dimerization assay
Sequence (Q16552 24-155): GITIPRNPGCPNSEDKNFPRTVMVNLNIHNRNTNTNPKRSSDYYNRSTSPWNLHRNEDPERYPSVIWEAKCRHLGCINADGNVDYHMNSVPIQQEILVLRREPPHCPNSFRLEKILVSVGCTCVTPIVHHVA
pIC50: −log10 of the molar value. Residues, ends and D or L forms follow the SMILES beside them.
pIC50 values by entry

Consider the worked cases shown below.
MOLECULE	TARGET DESC	pIC50
CC[C@H](C)[C@H](NC(=O)[C@H](CCC(=O)O)NC(=O)[C@H](CCC(N)=O)NC(=O)[C@@H]1CCCN1C(=O)[C@@H](NC(=O)[C@@H](NC(=O)[C@@H](NC(=O)[C@H](Cc1c[nH]cn1)NC(=O)[C@@H](NC(C)=O)C(C)C)C(C)C)[C@@H](C)O)C(C)C)C(=O)N[C@@H](Cc1ccc(O)cc1)C(=O)N[C@@H](CCC(=O)O)C(=O)N[C@@H](Cc1c[nH]c2ccccc12)C(=O)N[C@H](C(=O)N[C@@H](CCCNC(=N)N)C(=O)N[C@@H](CCCNC(=N)N)C(N)=O)C(C)C [SEQ ID NO: 236] (Ac-VHVTVPQEIYEWVRR-NH2)	IL-17RA/IL17RC dimerization induced by IL-17A (Homo sapiens, UniProt Q16552)	> 5.00
CC(=O)N[C@H](C(=O)N[C@@H](Cc1c[nH]cn1)C(=O)N[C@@H](Cc1ccccc1)C(=O)N[C@@H](CCC(N)=O)C(=O)N[C@@H](Cc1ccccc1)C(=O)N1CCC[C@H]1C(=O)N[C@@H](C)C(=O)N[C@@H](CC(=O)O)C(=O)N[C@@H](CC(C)C)C(=O)N[C@@H](Cc1c[nH]c2ccccc12)C(=O)N[C@@H](CCC(=O)O)C(=O)N[C@@H](Cc1c[nH]c2ccccc12)C(=O)N[C@H](C(=O)N[C@@H](CCCNC(=N)N)C(=O)N[C@@H](CCCNC(=N)N)C(N)=O)C(C)C)C(C)C [SEQ ID NO: 130] (Ac-VHFQFPADLWEWVRR-NH2)	IL-17RA/IL17RC dimerization induced by IL-17A (Homo sapiens, UniProt Q16552)	> 6.30
CC[C@H](C)[C@H](NC(C)=O)C(=O)N[C@@H](Cc1c[nH]cn1)C(=O)N[C@H](C(=O)N[C@H](C(=O)N[C@H](C(=O)N1CCC[C@H]1C(=O)N[C@@H](C)C(=O)N[C@@H](CC(=O)O)C(=O)N[C@@H](CC(C)C)C(=O)N[C@@H](Cc1c[nH]c2ccccc12)C(=O)N[C@@H](CC(=O)O)C(=O)N[C@@H](Cc1c[nH]c2ccccc12)C(=O)N[C@H](C(=O)N[C@@H](CC(N)=O)C(=O)N[C@@H](CCCCN)C(N)=O)[C@@H](C)CC)C(C)C)[C@@H](C)O)C(C)C [SEQ ID NO: 183] (Ac-IHVTVPADLWDWINK-NH2)	IL-17RA/IL17RC dimerization induced by IL-17A (Homo sapiens, UniProt Q16552)	> 5.00

Consider the record given below.
Req: Could you share what pIC50 was measured for CC[C@H](C)[C@H](NC(C)=O)C(=O)N[C@@H](Cc1c[nH]cn1)C(=O)N[C@H](C(=O)N[C@H](C(=O)N[C@H](C(=O)N1CCC[C@H]1C(=O)N[C@@H](CCC(N)=O)C(=O)N[C@@H](CC(=O)O)C(=O)N[C@@H](CC(C)C)C(=O)N[C@@H](Cc1c[nH]c2ccccc12)C(=O)N[C@@H](CC(=O)O)C(=O)N[C@@H](Cc1c[nH]c2ccccc12)C(=O)N[C@H](C(=O)N[C@@H](CC(N)=O)C(=O)N[C@@H](CCCCN)C(N)=O)[C@@H](C)CC)[C@@H](C)CC)[C@@H](C)O)C(C)C [SEQ ID NO: 198] (Ac-IHVTIPQDLWDWINK-NH2) , tested on IL-17RA/IL17RC dimerization induced by IL-17A (Homo sapiens, UniProt Q16552)?
Resp: > 5.00

---

experiment: Isoelectric point, log D and log P (SiriusT3); assay type: physicochemical; conditions: octanol/ISA water; read-out: logP
Residues, ends and D or L forms follow the SMILES beside them.
MEASUREMENT LABEL: logP

Req: Could you share which logP value was measured for CC[C@H](C)[C@H](NC(C)=O)C(=O)N[C@@H](CCSC)C(=O)N[C@H](C(=O)N[C@H](C(=O)N[C@H](C(=O)N1CCC[C@H]1C(=O)N[C@@H](C)C(=O)N[C@@H](CC(=O)O)C(=O)N[C@@H](CC(C)C)C(=O)N[C@@H](Cc1c[nH]c2ccccc12)C(=O)N[C@@H](CC(=O)O)C(=O)N[C@@H](Cc1c[nH]c2ccccc12)C(=O)N[C@H](C(=O)N[C@@H](CC(N)=O)C(=O)N[C@@H](CCCCN)C(N)=O)[C@@H](C)CC)[C@@H](C)CC)[C@@H](C)O)C(C)C [SEQ ID NO: 3] (Ac-IMVTIPADLWDWINK-NH2) ?
Resp: 1.33

---

assay: Isoelectric point, log D and log P (SiriusT3); assay type: physicochemical; conditions: octanol/ISA water; read-out: logP
Residues, ends and D or L forms follow the SMILES beside them.
MEASUREMENT LABEL: logP
Lab note: record just the number, no unit beside it.

Consider the worked cases shown below.
COMPOUND	OBSERVED
CC[C@H](C)[C@H](NC(C)=O)C(=O)N[C@@H](Cc1c[nH]cn1)C(=O)N[C@H](C(=O)N[C@H](C(=O)N[C@H](C(=O)N1CCC[C@H]1C(=O)N[C@@H](C)C(=O)N[C@@H](CCC(=O)O)C(=O)N[C@@H](CC(C)C)C(=O)N[C@@H](Cc1c[nH]c2ccccc12)C(=O)N[C@@H](CC(=O)O)C(=O)N[C@@H](Cc1c[nH]c2ccccc12)C(=O)N[C@H](C(=O)N[C@@H](CC(N)=O)C(=O)N[C@@H](CCCCN)C(N)=O)[C@@H](C)CC)[C@@H](C)CC)[C@@H](C)O)C(C)C [SEQ ID NO: 5] (Ac-IHVTIPAELWDWINK-NH2)	-0.51
CC[C@H](C)[C@H](NC(=O)[C@H](Cc1c[nH]c2ccccc12)NC(=O)[C@H](CC(=O)O)NC(=O)[C@H](Cc1c[nH]c2ccccc12)NC(=O)[C@H](CC(C)C)NC(=O)[C@H](CC(=O)O)NC(=O)[C@H](C)NC(=O)[C@@H]1CCCN1C(=O)[C@@H](NC(=O)[C@@H](NC(=O)[C@@H](NC(=O)[C@H](CCSC)NC(=O)[C@@H](NC(C)=O)C(C)C)C(C)C)[C@@H](C)O)[C@@H](C)CC)C(=O)N[C@@H](CC(N)=O)C(=O)N[C@@H](CCCCN)C(N)=O [SEQ ID NO: 4] (Ac-VMVTIPADLWDWINK-NH2)	1.88

Consider the record given below.
Req: Could you share which logP value was measured for CC[C@H](C)[C@H](NC(=O)[C@H](Cc1c[nH]c2ccccc12)NC(=O)[C@H](CCC(=O)O)NC(=O)[C@H](Cc1ccc(O)cc1)NC(=O)[C@H](CC(C)C)NC(=O)[C@H](CC(=O)O)NC(=O)[C@H](C)NC(=O)[C@@H]1CCCN1C(=O)[C@@H](NC(=O)[C@@H](NC(=O)[C@@H](NC(=O)[C@H](CCSC)NC(=O)[C@@H](NC(C)=O)C(C)C)C(C)C)[C@@H](C)O)[C@@H](C)CC)C(=O)N[C@@H](CCC(=O)O)C(=O)N[C@@H](CCC(=O)O)C(N)=O [SEQ ID NO: 18] (Ac-VMVTIPADLYEWIEE-NH2) ?
Resp: 1.89

---

Assay type: physicochemical
Settings: pH 7.8
Protocol: Each lyophilized peptide was weighed in an amber vial. A calculated volume of phosphate buffered solution at pH 7.8 was added in order to directly obtain 10 mM Stock Solutions. The recovered suspensions were stirred for 30 minutes by orbital shaker incubator at 37° C. […] In order to evaluate the stability and the solubility, all the stock solutions were stored at 25° C. The title was evaluated by UHPLC-MS analysis in comparison with the standard solutions, at 3 time points: T0, 3 days, 1 week. […]
Residues, ends and D or L forms follow the SMILES beside them.
MEASUREMENT LABEL: solubility

Req: Could you share which solubility value was measured for CC[C@H](C)[C@H](NC(C)=O)C(=O)N[C@@H](Cc1c[nH]cn1)C(=O)N[C@H](C(=O)N[C@H](C(=O)N[C@H](C(=O)N1CCC[C@H]1C(=O)N[C@@H](C)C(=O)N[C@@H](CC(=O)O)C(=O)N[C@@H](CC(C)C)C(=O)N[C@@H](Cc1ccc(O)cc1)C(=O)N[C@@H](CCC(=O)O)C(=O)N[C@@H](Cc1c[nH]c2ccccc12)C(=O)N[C@H](C(=O)N[C@@H](CC(N)=O)C(=O)N[C@@H](CCCCN)C(N)=O)[C@@H](C)CC)[C@@H](C)CC)[C@@H](C)O)C(C)C [SEQ ID NO: 13] (Ac-IHVTIPADLYEWINK-NH2) ?
Resp: >10 mM
